measurement description: Plasma pharmacokinetics, multiple ascending dose cohorts
Assay type: in vivo, human
measurement context: human, plasma, oral, 30 mg
reported metric: AUC(0-t) (ng·h/mL)

| compound smiles | data value |
| --- | --- |
| Cc1cnc(-c2ccnc(C(C)(C)O)n2)cc1-n1c(C)cc(OCc2ncc(F)cc2F)c(Cl)c1=O | 1200 |

====

measurement description: Plasma pharmacokinetics, single ascending dose cohorts
Assay type: in vivo, human
measurement context: human, plasma, oral, 100 mg
reported metric: Cmax (ng/mL)

| molecule | data value |
| --- | --- |
| Cc1cnc(-c2ccnc(C(C)(C)O)n2)cc1-n1c(C)cc(OCc2ncc(F)cc2F)c(Cl)c1=O [ATI-450] | 426 |

====

measurement description: Plasma pharmacokinetics, single ascending dose cohorts
Format: in vivo, human
measurement context: human, plasma, oral, 50 mg

| compound smiles | Cmax |
| --- | --- |
| Cc1cnc(-c2ccnc(C(C)(C)O)n2)cc1-n1c(C)cc(OCc2ncc(F)cc2F)c(Cl)c1=O | 0.161 µg/mL |

====

measurement description: Plasma pharmacokinetics, single ascending dose cohorts
Format: in vivo, human
measurement context: human, plasma, oral, 30 mg
reported metric: half-life (h)

| compound | data value |
| --- | --- |
| Cc1cnc(-c2ccnc(C(C)(C)O)n2)cc1-n1c(C)cc(OCc2ncc(F)cc2F)c(Cl)c1=O [ATI-450] | 10.7 |

====

measurement description: Plasma pharmacokinetics, multiple ascending dose cohorts
Type: in vivo, human
measurement context: human, plasma, oral, 50 mg
reported metric: AUC (µg·h/mL)

| compound smiles | reported metric | data value |
| --- | --- | --- |
| Cc1cnc(-c2ccnc(C(C)(C)O)n2)cc1-n1c(C)cc(OCc2ncc(F)cc2F)c(Cl)c1=O | AUC | 1.51 |

====

measurement description: Plasma pharmacokinetics, single ascending dose cohorts
Assay type: in vivo, human
measurement context: human, plasma, oral, 10 mg

| compound smiles | half-life, h |
| --- | --- |
| Cc1cnc(-c2ccnc(C(C)(C)O)n2)cc1-n1c(C)cc(OCc2ncc(F)cc2F)c(Cl)c1=O | 8.5 |

====

measurement description: Plasma pharmacokinetics, single ascending dose cohorts
Format: in vivo, human
measurement context: human, plasma, oral, 50 mg

| compound smiles | AUC(0-inf) [ng·h/mL] |
| --- | --- |
| Cc1cnc(-c2ccnc(C(C)(C)O)n2)cc1-n1c(C)cc(OCc2ncc(F)cc2F)c(Cl)c1=O | 1460 |
